- System: NCI-H522
- experimentalProtocol: NCI tumour cell line growth inhibition, 48 h
Active and inactive are the calls of the source. Rule as the data show it: active = GI50 up to about 1.1 µM and inactive = higher.
Write down the outcome that applies. Available outcomes: active, inactive

{"compound": "COc1ccc(S(=O)(=O)N[C@H](C(=O)O)c2ccccc2)cc1", "targetUnderTest": "NCI-H522", "assignedCategory": "inactive"}

Assay outcome for CN1CCC(SC2Cc3cc(Cl)ccc3Sc3ccccc32)CC1 (stereo unspecified) : what was it?
inactive

Assay outcome for COC(=O)c1ccc(C)cc1C1CN=NC12Cc1cc(C)c(C)cc1C2=O (stereo unspecified) : what was it?
inactive

----------
In this section, each of the compounds is paired with its reported GI50.
- System: LXFL 529
- experimentalProtocol: NCI tumour cell line growth inhibition, 48 h
Calls of active or inactive are those of the source. Rule as the data show it: active = GI50 up to about 1.1 µM and inactive = higher.

{"compound": "COc1ccc(C23c4ccc(OC)cc4CC2(c2ccc([N+](=O)[O-])cc2)Cc2cc(OC)ccc23)cc1 (configuration not stated)", "GI50": "> 54.5 µM (inactive)"}
{"compound": "CC(C)(C)C1CCC(O)(c2ccccc2)CC1 (configuration not stated)", "GI50": "78.2 µM (inactive)"}
{"compound": "CN(/N=N/c1[nH]cnc1C(N)=O)C1CCCCC1", "GI50": "> 100 µM (inactive)"}
{"compound": "Cc1cccc(C)c1NC(=O)C1=NC(=S)NC(c2ccccc2)C1c1nc2ccccc2s1 (configuration not stated)", "GI50": "> 100 µM (inactive)"}

Would you kindly share the measured GI50 for COC(=O)N/N=C(\C)c1sc(-c2nc(C)c(/C(C)=N/NC(=O)OC)s2)nc1C ?
> 100 µM (inactive)

Would you kindly share the measured GI50 for CC(C)Cc1ccc(C(C)/C=C2\CCC(CN3CCOCC3)C2=O)cc1 (configuration not stated) ?
1.64 µM (inactive)

Would you kindly share the measured GI50 for CN1C(c2ccccc2)CC(=Nc2ccccc2)CC1c1ccccc1 (configuration not stated) ?
4.46 µM (inactive)

Would you kindly share the measured GI50 for C[Si](C)(C)[C@@]1([Se]c2ccccc2)CC[C@@H]1C(=O)c1ccccc1 ?
65.6 µM (inactive)

Would you kindly share the measured GI50 for NC(=O)N/N=C/C(=C/Nc1ccccc1)[N+](=O)[O-] ?
> 100 µM (inactive)

Would you kindly share the measured GI50 for N#CCN1C(=O)c2cccc3cc([N+](=O)[O-])cc(c23)C1=O ?
40.1 µM (inactive)

Would you kindly share the measured GI50 for O=C(O)CCC(NC(=O)c1ccccc1)C(=O)O (configuration not stated) ?
> 100 µM (inactive)

Would you kindly share the measured GI50 for CCOc1ccccc1NC(=O)CC1Sc2ccccc2NC1=O (configuration not stated) ?
59.2 µM (inactive)

Would you kindly share the measured GI50 for COC(=O)C(CC1=C(O)Nc2ccccc2N1)/C(=N/NC(N)=O)C(=O)Nc1ccccc1C (configuration not stated) ?
69.8 µM (inactive)

Would you kindly share the measured GI50 for CCCN(CCC)C(=O)C(=O)c1c(N)[nH]n(-c2ccccc2)c1=O ?
66.2 µM (inactive)

----------
- System: SR
- experimentalProtocol: NCI tumour cell line growth inhibition, 48 h
Calls of active or inactive are those of the source. No stated cut-off is given here; in the data, active = GI50 up to about 1.1 µM and inactive = higher.
In this section, each of the compounds is paired with its reported GI50.

Recorded GI50, per entry:
{"smilesRepresentation": "NC(=O)c1ncn(CCN2CCN(C(=O)NCCCCCCNC(=O)N3CCN(CCn4cnc(C(N)=O)c4N)CC3)CC2)c1N", "GI50": "> 100 µM (inactive)"}
{"smilesRepresentation": "CC1=C(C(=O)Nc2ccccc2)C(c2ccccc2Cl)C(C(=O)Nc2ccccc2)=C(C)N1", "GI50": "25.8 µM (inactive)"}
{"smilesRepresentation": "NNC(=O)CSc1nc2ccccc2c(=O)n1N", "GI50": "> 100 µM (inactive)"}
{"smilesRepresentation": "NC(=O)N/N=C/C(=C/Nc1ccccc1)[N+](=O)[O-]", "GI50": "> 100 µM (inactive)"}
{"smilesRepresentation": "O=c1[nH]c(=O)n(COCc2ccccc2)cc1Nc1ccc(Br)cc1", "GI50": "> 100 µM (inactive)"}

// switching to the query compound
Would you kindly share the measured GI50 for CC(=O)n1nc(-c2nc3ccccc3nc2Cl)cc1Cl ?
3.34 µM (inactive)

----------
- System: Hs-578T
- experimentalProtocol: NCI tumour cell line growth inhibition, 48 h
Active and inactive are the calls of the source. No stated cut-off is given here; in the data, active = GI50 up to about 1.1 µM and inactive = higher.
Write down the outcome that applies. Available outcomes: Yes = active, No = inactive

Example entries begin here.
{"molecule": "N#CC(C#N)=C/C=C(\\Sc1c(Cl)c(Cl)nc(Cl)c1Cl)c1ccc(Cl)cc1", "assignedCategory": "No"}
{"molecule": "COc1ccc(C2NC3=C(CCCC3)C3(C#N)C(=O)N=C(N)C23C#N)cc1 (stereo not given)", "assignedCategory": "No"}

Assay outcome for CN(C)c1ccccc1CN1CCCN(Cc2ccccc2N(C)C)C1c1ccncc1 : what was it?
No

Assay outcome for CCOC(=O)C(Cc1cn(C(C)=O)c2ccccc12)P(=O)(OCC)OCC (stereo not given) : what was it?
No

Assay outcome for Nc1nc(NNc2ccc(Cl)c(Cl)c2)cc(=O)[nH]1 : what was it?
No

Assay outcome for N#CSCc1cccc(Nc2cc(=O)[nH]c(=O)[nH]2)c1 : what was it?
No

Assay outcome for Cc1cc2cc3c(cc2c(-c2ccc(N)cc2)n1)OCO3 : what was it?
No

----------
In this section, each of the compounds is paired with its reported GI50.
- Tested on: OVCAR-5
- experimentalProtocol: NCI tumour cell line growth inhibition, 48 h
Activity calls are given as the source filed them. Rule as the data show it: active = GI50 up to about 1.1 µM and inactive = higher.

{"compound": "O=C(NC1C2CC3CC(C2)CC1C3)c1ccncn1 (stereo not drawn)", "GI50": "> 100 µM (inactive)"}
{"compound": "C=CCOC(=O)CCCCCCCCCCCCCCCOC(=O)C1=C(CCC[C@@H](C)O[Si](C)(C)C(C)(C)C)NC(=O)N2[C@H](CC3(CC/C=C\\[C@H](CC)O[Si](C(C)C)(C(C)C)C(C)C)OCCO3)CC[C@H]12", "GI50": "> 100 µM (inactive)"}

// switching to the query compound
Would you kindly share the measured GI50 for NC(=O)NC(=O)c1cccc(NC(=O)CCl)c1 ?
1.65 µM (inactive)

----------
- System: UACC-257
- experimentalProtocol: NCI tumour cell line growth inhibition, 48 h
Activity calls are given as the source filed them. Rule as the data show it: active = GI50 up to about 1.1 µM and inactive = higher.
In this section, each of the compounds is paired with its reported GI50.

Recorded GI50, per entry:
{"compound": "N=S(c1ccccc1)c1ccccc1[N+](=O)[O-] (centres undefined)", "GI50": "18.1 µM (inactive)"}
{"compound": "C=CCOC(=O)CCCCCCCCCCCCCCCOC(=O)C1=C(CCC[C@@H](C)O[Si](C)(C)C(C)(C)C)NC(=O)N2[C@H](CC3(CC/C=C\\[C@H](CC)O[Si](C(C)C)(C(C)C)C(C)C)OCCO3)CC[C@H]12", "GI50": "> 100 µM (inactive)"}
{"compound": "O=C(O)COc1c(Cl)cc(Cl)c2cccnc12", "GI50": "> 100 µM (inactive)"}

Would you kindly share the measured GI50 for O=C([O-])Cc1ccccc1.[Na+] [SODIUM PHENYLACETATE] ?
> 2000 µM (inactive)

----------
- Test system: SN12C
- experimentalProtocol: NCI tumour cell line growth inhibition, 48 h
The source made the active and inactive calls. Cut-off read from the data, not from the text of the source: active = GI50 up to about 1.1 µM and inactive = higher.
In this section, each of the molecules is paired with its reported GI50.

Recorded GI50, per entry:
{"molecule": "Cc1nnc2n1N=C(c1cc(F)c(Cl)cc1Cl)/C(=C/c1ccc(Cl)cc1)S2", "GI50": "14.9 µM (inactive)"}
{"molecule": "O=C1c2ccccc2C(=O)N1CCn1ccc(NC(c2ccccc2)(c2ccccc2)c2ccccc2)nc1=O", "GI50": "26.2 µM (inactive)"}
{"molecule": "Cc1cccc(C)c1NC(=O)C1=NC(=S)NC(c2ccccc2)C1c1nc2ccccc2s1 (stereo unspecified)", "GI50": "> 100 µM (inactive)"}
{"molecule": "CCOC(=O)C(Cc1cn(C(C)=O)c2ccccc12)P(=O)(OCC)OCC (stereo unspecified)", "GI50": "> 100 µM (inactive)"}
{"molecule": "CCOc1ccccc1NC(=O)CC1Sc2ccccc2NC1=O (stereo unspecified)", "GI50": "> 100 µM (inactive)"}

Would you kindly share the measured GI50 for O=C1CNc2cc(N3CCN(c4cccc(C(F)(F)F)c4)CC3)ccc2N1 ?
> 100 µM (inactive)

Would you kindly share the measured GI50 for O=C(O)COc1c(Cl)cc(Cl)c2cccnc12 ?
> 100 µM (inactive)

Would you kindly share the measured GI50 for CCn1c2ccccc2n2c(=O)c3c(c(C#N)c12)CCCC3 ?
> 100 µM (inactive)

Would you kindly share the measured GI50 for O=C(NC1C2CC3CC(C2)CC1C3)c1ccncn1 (stereo unspecified) ?
> 100 µM (inactive)

Would you kindly share the measured GI50 for CCCCCCCCCCCCCCCCCc1cccc(OCOCCOC)c1C(=O)O ?
22.4 µM (inactive)

Would you kindly share the measured GI50 for CN(C)CCC(/C=C/c1ccccc1)=N\Nc1ccccc1 ?
2.74 µM (inactive)

Entry source: ChEMBL document CHEMBL1201862
